biological target: HLA-A*11:01; assay: IEDB peptide-MHC binding, purified MHC/direct/fluorescence; filed as Kd, often an IC50 or EC50 that approximates it; bounds were set here for any values at or beyond the usual limits of such assays; conditions: source organism: Mycobacterium avium 104
pKd: −log10 of the molar value.
QUANTITY NAME: pKd

Input line: Look at this sequence and give its reported pKd. EHVQGDIDL
Output line: ≤ 4.70

* * *

target: HLA-B*08:02; test: IEDB peptide-MHC binding, purified MHC/direct/fluorescence; filed as Kd, often an IC50 or EC50 that approximates it; bounds were set here for any values at or beyond the usual limits of such assays; conditions: source organism: Influenza A virus(A/swine/Shandong/fNY/2003(H9N2))
QUANTITY NAME: Kd

Input line: Kindly state the measured Kd obtained for KYTSGRQEK with HLA-B*08:02.
Output line: ≥ 20 µM
